Target or system hsHDAC6 (Homo sapiens); recorded quantity IC50.
Numeric answer only, unit nM assumed.

Ask | Suppose we examine the compound COc1ccc(C(=O)NO)cc1NC(=O)c1ccc(-c2ccccc2)cc1 [TH65, reference compound] ; what IC50 value has been reported?
Reply | 390

Ask | Suppose we examine the compound CCCCCCC(=O)N(O)C1CC(=O)N(c2ccc(Cl)cc2)C1=O (stereo not drawn) ; what IC50 value has been reported?
Reply | 2650

Ask | Suppose we examine the compound CCCCCCC(=O)N(O)C1CC(=O)N(c2ccc(C)cc2)C1=O (stereo not drawn) ; what IC50 value has been reported?
Reply | 1570

###

Sequence of the target: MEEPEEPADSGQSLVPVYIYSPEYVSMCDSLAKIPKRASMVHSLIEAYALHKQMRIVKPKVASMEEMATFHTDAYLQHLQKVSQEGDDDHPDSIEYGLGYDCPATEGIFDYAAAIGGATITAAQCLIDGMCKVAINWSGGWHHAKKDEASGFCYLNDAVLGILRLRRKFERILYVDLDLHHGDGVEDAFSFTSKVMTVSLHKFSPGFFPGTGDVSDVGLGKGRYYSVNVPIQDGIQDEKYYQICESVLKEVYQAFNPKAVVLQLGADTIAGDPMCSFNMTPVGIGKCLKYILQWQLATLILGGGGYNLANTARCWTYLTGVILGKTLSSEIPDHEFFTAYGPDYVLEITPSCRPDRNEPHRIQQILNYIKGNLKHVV
READOUT NAME: pIC50
Scale for pIC50: -log10 of concentration given in mol/L; no unit attached.

Ask | Suppose we examine the compound CCCCCC(=O)N(O)C1CC(=O)N(c2ccc(Cl)cc2)C1=O (stereo not shown) ; what pIC50 value has been reported?
Reply | 6.31

Ask | Suppose we examine the compound COc1ccc(C(=O)NO)cc1NC(=O)c1ccc(-c2ccccc2)cc1 [TH65, reference compound] ; what pIC50 value has been reported?
Reply | 7.59

Ask | Suppose we examine the compound CCCCCCC(=O)N(O)C1CC(=O)N(c2ccc(Cl)cc2)C1=O (stereo not shown) ; what pIC50 value has been reported?
Reply | 5.11

Ask | Suppose we examine the compound CCCCCCC(=O)N(O)C1CC(=O)N(c2ccc(F)cc2)C1=O (stereo not shown) ; what pIC50 value has been reported?
Reply | 5.68

###

Biological target: smHDAC8 (Schistosoma mansoni)
Sequence (A5H660 1-440): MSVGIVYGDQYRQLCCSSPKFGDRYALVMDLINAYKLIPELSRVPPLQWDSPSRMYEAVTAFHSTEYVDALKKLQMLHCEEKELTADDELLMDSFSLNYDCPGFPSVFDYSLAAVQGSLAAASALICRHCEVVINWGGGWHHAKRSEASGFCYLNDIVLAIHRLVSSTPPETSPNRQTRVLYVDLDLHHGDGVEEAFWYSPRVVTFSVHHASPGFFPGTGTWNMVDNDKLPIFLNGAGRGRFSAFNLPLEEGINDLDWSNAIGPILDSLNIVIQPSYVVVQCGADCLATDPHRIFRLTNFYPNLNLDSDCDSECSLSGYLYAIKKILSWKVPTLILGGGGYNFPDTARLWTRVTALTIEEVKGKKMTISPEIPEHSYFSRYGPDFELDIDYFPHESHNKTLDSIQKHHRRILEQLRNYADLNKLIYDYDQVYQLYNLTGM
READOUT NAME: pIC50
Scale for pIC50: -log10 of concentration given in mol/L; no unit attached.

Ask | Suppose we examine the compound CCCCCCC(=O)N(O)C1CC(=O)N(c2ccccc2)C1=O (stereo not shown) [J1060] ; what pIC50 value has been reported?
Reply | 4.94

Ask | Suppose we examine the compound CCCCCC(=O)N(O)C1CC(=O)N(c2ccc(Cl)cc2)C1=O (stereo not shown) [J1036] ; what pIC50 value has been reported?
Reply | 5.36

Ask | Suppose we examine the compound COc1ccc(C(=O)NO)cc1NC(=O)c1ccc(-c2ccccc2)cc1 [TH65, reference compound] ; what pIC50 value has been reported?
Reply | 7.12

Ask | Suppose we examine the compound CCCCCC(=O)N(O)C1CC(=O)N(c2ccccc2)C1=O (stereo not shown) [J1058] ; what pIC50 value has been reported?
Reply | 4.69
